value.type: melting point

molecule	melting point
O=Cc1ccc(OS(=O)(=O)c2ccc(C(F)(F)F)cc2)cc1	110 to 111 °C
O=Cc1cccc(OS(=O)(=O)c2ccc(C(F)(F)F)cc2)c1	79 to 80 °C
COc1ccc(C=NNC(=O)c2ccncc2)c(OS(=O)(=O)c2ccc(C(F)(F)F)cc2)c1	180 to 181 °C
O=C(NN=Cc1cccc(OS(=O)(=O)c2ccc(C(F)(F)F)cc2)c1)c1ccncc1	189 to 190 °C

Next molecule, melting point to be filled in.
[Q] Write down melting point measured for item COc1cccc(C=NNC(=O)c2ccncc2)c1OS(=O)(=O)c1ccc(C(F)(F)F)cc1
[A] 198 to 199 °C

###

Field: IC50. Provide a value for each of the molecules that follow.
- System: human prostate cancer cells (PC3)
- test: MTT cytotoxic activity assay, PC3 cells, 72 h
- Assay type: cell-based
- test.context: Homo sapiens, PC-3, PC3 cell line
One number for each entry, in µM.

molecule	IC50, µM
COc1cccc(C=NNC(=O)c2ccncc2)c1OS(=O)(=O)c1ccc(C(F)(F)F)cc1	214
COc1ccc(C=O)cc1OS(=O)(=O)c1ccc(C(F)(F)F)cc1	16

Value sought for every listed molecule: IC50.
1. COc1cccc(C=O)c1OS(=O)(=O)c1ccc(C(F)(F)F)cc1
2. O=Cc1cccc(OS(=O)(=O)c2ccc(C(F)(F)F)cc2)c1
3. O=Cc1c(OS(=O)(=O)c2ccc(C(F)(F)F)cc2)ccc2ccccc12
4. COc1ccc(C=NNC(=O)c2ccncc2)cc1OS(=O)(=O)c1ccc(C(F)(F)F)cc1
5. COc1ccc(C=O)c(OS(=O)(=O)c2ccc(C(F)(F)F)cc2)c1
6. O=C(NN=Cc1ccccc1OS(=O)(=O)c1ccc(C(F)(F)F)cc1)c1ccncc1

[A]
1. 10.3
2. 24.5
3. 14.8
4. 97.4
5. 11.2
6. 139

Batch request: IC50 for each of the following molecules.
1. COc1cc(C=NNC(=O)c2ccncc2)ccc1OS(=O)(=O)c1ccc(C(F)(F)F)cc1
2. O=Cc1ccc(OS(=O)(=O)c2ccc(C(F)(F)F)cc2)cc1

[A]
[121, 76.6]

Parameters: items (list). Returns: IC50 for each item.
1. COc1cc(C=O)ccc1OS(=O)(=O)c1ccc(C(F)(F)F)cc1
2. CCN(CC)c1ccc(C=NNC(=O)c2ccncc2)c(OS(=O)(=O)c2ccc(C(F)(F)F)cc2)c1
3. O=Cc1ccccc1OS(=O)(=O)c1ccc(C(F)(F)F)cc1

[A]
1. 71.6
2. 57.6
3. 14.3

Please go through the list and note IC50 for each molecule.
1. CCN(CC)c1ccc(C=O)c(OS(=O)(=O)c2ccc(C(F)(F)F)cc2)c1
2. COc1ccc(C=NNC(=O)c2ccncc2)c(OS(=O)(=O)c2ccc(C(F)(F)F)cc2)c1
3. O=C(NN=Cc1cccc(OS(=O)(=O)c2ccc(C(F)(F)F)cc2)c1)c1ccncc1
4. O=C(NN=Cc1c(OS(=O)(=O)c2ccc(C(F)(F)F)cc2)ccc2ccccc12)c1ccncc1

[A]
1. 28.8
2. 16.5
3. 80.1
4. 17.1

###

value.type: melting point

molecule	melting point
O=Cc1ccccc1OS(=O)(=O)c1ccc(C(F)(F)F)cc1	83 to 84 °C
O=C(N/N=C/c1ccc(OS(=O)(=O)c2ccc(C(F)(F)F)cc2)cc1)c1ccncc1	208 to 209 °C

[Q] Name the recorded melting point of the item O=Cc1c(OS(=O)(=O)c2ccc(C(F)(F)F)cc2)ccc2ccccc12 in your answer.
[A] 129 to 131 °C
